Biological target: DNMT1 (amino acids 621–1616) (Homo sapiens)
Construct: RFTS-lacking DNMT1, amino acids 621–1616; made in house
Assay: Differential scanning fluorimetry (DSF) assay
Format: binding
Conditions: 100 µM compound, 2 µM DNMT1, no DNA or SAM; DMSO 46.5 ± 0.1
Experimental Endpoint: Tm

Molecule | Experimental Result
O=C(O)C(S)C(S)C(=O)O (stereo not shown) | 49.0 ± 0.1 ºC
CC(=O)NCCc1ccc(O)c(-c2c(O)c(O)c3c(c2O)C(=O)c2c(cc(O)c(C(=O)O)c2C(=O)O)C3=O)c1 | 48.5 ± 0.1 ºC
Oc1cc(Cl)ccc1Oc1ccc(Cl)cc1Cl | 47.5 ± 0.1 ºC
CSc1nc2cc(Cl)c(Oc3cccc(Cl)c3Cl)cc2[nH]1 | 48.3 ± 0.1 ºC

* * *

Here the recorded remaining activity at 5 µM is given for each entry.
Target: DNMT1 (amino acids 621–1616) (Homo sapiens, UniProt P26358)
Construct: RFTS-lacking DNMT1, amino acids 621–1616; made in house
Test: Detergent test, endonuclease-coupled DNA methylation assay
Format: biochemical
Details: 5 µM compound, absence of 0.01% Triton X-100; read-out: Percent activity, 0.01% Triton X-100 -
Description: The effect of detergent on observed DNMT1 inhibition was examined using the endonuclease-coupled DNA methylation assay. […] A control containing GlaI in the absence of DNMT1 was subtracted from each assay condition. Corrected assay traces were fitted in Prism.
Experimental Endpoint: remaining activity at 5 µM (%)

Smiles Record | Experimental Endpoint | Measurement Units | Experimental Result
CSc1nc2cc(Cl)c(Oc3cccc(Cl)c3Cl)cc2[nH]1 | remaining activity at 5 µM | % | 52
O=c1c(O)c(-c2ccc(O)c(O)c2)oc2c(O)c(O)cc(O)c12 | remaining activity at 5 µM | % | 53
CC(=O)NCCc1ccc(O)c(-c2c(O)c(O)c3c(c2O)C(=O)c2c(cc(O)c(C(=O)O)c2C(=O)O)C3=O)c1 | remaining activity at 5 µM | % | 56

* * *

Here the recorded Initial Velocity is given for each entry.
Tested on: GlaI
Assay: GlaI counterscreen
Type: biochemical
Settings: 11 µM test compound, 5 nM oligonucleotide 8007, 0.2 U GlaI

Molecule | Initial Velocity
O=C(O)c1cc(O)c2c(c1)[C@@H]([C@H]1c3cc(C(=O)O)cc(O)c3C(=O)c3c(O[C@H]4O[C@H](CO)[C@@H](O)[C@H](O)[C@H]4O)cccc31)c1cccc(O[C@H]3O[C@H](CO)[C@@H](O)[C@H](O)[C@H]3O)c1C2=O [Cmpd 22] | 24 ± 1 RFU/min
CC(=O)NCCc1ccc(O)c(-c2c(O)c(O)c3c(c2O)C(=O)c2c(cc(O)c(C(=O)O)c2C(=O)O)C3=O)c1 [Cmpd 40, Laccaic acid A] | 22 ± 3 RFU/min
CC1/C=C/C=C/C=C/C=C/C=C/C=C/C=C/C(O[C@@H]2O[C@H](C)[C@H](O)[C@@H](O)[C@@H]2N)CC(O)C(C(=O)O)C(O)CC(=O)CC(O)CC(O)CC(O)CC(=O)CCCC(=O)CC(=O)OC1C(C)CC(C)C(O)CC(=O)c1ccc(N)cc1 (stereo partly drawn) [Cmpd 24] | 27 ± 1 RFU/min
O=C1c2ccccc2C(=O)c2c1ccc(O)c2O [Cmpd 26, alizarin] | 22 ± 1 RFU/min
Oc1cc(Cl)ccc1Oc1ccc(Cl)cc1Cl [Cmpd 13, triclosan] | 28 ± 2 RFU/min
O=C(O)c1cc(O)c2c(c1)[C@@H]([C@@H]1c3cc(C(=O)O)cc(O)c3C(=O)c3c(O[C@H]4O[C@H](CO)[C@@H](O)[C@H](O)[C@H]4O)cccc31)c1cccc(O[C@H]3O[C@H](CO)[C@@H](O)[C@H](O)[C@H]3O)c1C2=O [Cmpd 36] | 28 ± 1 RFU/min
O=c1c(O)c(-c2ccc(O)c(O)c2)oc2c(O)c(O)cc(O)c12 [Cmpd 33] | 27 ± 2 RFU/min
O=C(O)C(S)C(S)C(=O)O (stereo not drawn) [Cmpd 51] | 25 ± 1 RFU/min
CSc1nc2cc(Cl)c(Oc3cccc(Cl)c3Cl)cc2[nH]1 [Cmpd 29, triclabendazole] | 22 ± 2 RFU/min

* * *

Target: RFTS-containing DNMT1 (amino acids 351–1616) (Homo sapiens)
Construct: RFTS-containing DNMT1, amino acids 351–1616; made in house
Sequence (P26358 351-1616): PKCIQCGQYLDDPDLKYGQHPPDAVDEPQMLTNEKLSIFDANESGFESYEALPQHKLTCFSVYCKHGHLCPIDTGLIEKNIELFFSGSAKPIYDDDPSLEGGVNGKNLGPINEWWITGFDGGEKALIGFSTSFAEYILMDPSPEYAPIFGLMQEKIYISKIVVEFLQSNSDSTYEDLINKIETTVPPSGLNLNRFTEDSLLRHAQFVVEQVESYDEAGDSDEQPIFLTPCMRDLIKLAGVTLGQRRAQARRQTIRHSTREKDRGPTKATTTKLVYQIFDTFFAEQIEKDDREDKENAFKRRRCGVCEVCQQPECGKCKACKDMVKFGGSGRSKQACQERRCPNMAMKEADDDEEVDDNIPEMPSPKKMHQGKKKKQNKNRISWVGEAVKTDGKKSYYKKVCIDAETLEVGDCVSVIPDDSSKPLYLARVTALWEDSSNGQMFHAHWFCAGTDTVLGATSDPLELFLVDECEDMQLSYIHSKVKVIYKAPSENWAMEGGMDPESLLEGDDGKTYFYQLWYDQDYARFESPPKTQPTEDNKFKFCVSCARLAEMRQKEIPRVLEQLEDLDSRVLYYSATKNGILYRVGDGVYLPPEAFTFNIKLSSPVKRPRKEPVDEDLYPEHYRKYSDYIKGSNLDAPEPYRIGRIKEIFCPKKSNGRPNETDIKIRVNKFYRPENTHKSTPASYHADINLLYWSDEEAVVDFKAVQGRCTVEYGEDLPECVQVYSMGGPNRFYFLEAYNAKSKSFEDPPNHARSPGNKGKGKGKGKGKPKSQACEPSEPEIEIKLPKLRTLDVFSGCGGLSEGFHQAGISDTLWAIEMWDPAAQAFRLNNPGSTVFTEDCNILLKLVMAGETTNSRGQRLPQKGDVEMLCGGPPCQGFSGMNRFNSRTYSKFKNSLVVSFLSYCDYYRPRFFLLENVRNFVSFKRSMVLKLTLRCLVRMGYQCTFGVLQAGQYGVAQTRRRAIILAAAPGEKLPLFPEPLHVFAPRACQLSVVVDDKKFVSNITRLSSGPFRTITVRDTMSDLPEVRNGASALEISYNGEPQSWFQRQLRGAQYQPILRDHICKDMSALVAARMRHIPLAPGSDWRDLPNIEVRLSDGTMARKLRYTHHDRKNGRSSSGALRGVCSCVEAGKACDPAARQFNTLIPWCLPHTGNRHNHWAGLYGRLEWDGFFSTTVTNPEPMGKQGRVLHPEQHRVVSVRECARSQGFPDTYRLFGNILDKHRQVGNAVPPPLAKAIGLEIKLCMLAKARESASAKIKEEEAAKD
Assay: Compound selectivity, endonuclease-coupled DNA methylation assay
Type: biochemical
Conditions: 20 µM inhibitor, 20 nM methyltransferase, 0.25 mM SAM
Experimental: Triplicate assays (100 µl) containing 0.25 mM SAM, 0.2 µM oligonucleotide 8006, 0.8 U GlaI, 20 nM methyltransferase, 20 µM inhibitor and 1% DMSO were conducted in 96 well plates. Following enzyme addition, assay plates were incubated at 37°C for 75 min and fluorescence was measured in a BioTek Neo plate reader. A control containing only GlaI was subtracted from each assay. […] Percent activity was determined by comparing product formation to a DMSO containing control assay.

Molecule | Measurement Units | Percent activity, RFTS-containing Dnmt1
O=c1c(O)c(-c2ccc(O)c(O)c2)oc2c(O)c(O)cc(O)c12 | % | 38
O=C(O)c1cc(O)c2c(c1)[C@@H]([C@H]1c3cc(C(=O)O)cc(O)c3C(=O)c3c(O[C@H]4O[C@H](CO)[C@@H](O)[C@H](O)[C@H]4O)cccc31)c1cccc(O[C@H]3O[C@H](CO)[C@@H](O)[C@H](O)[C@H]3O)c1C2=O | % | 40
Nc1ncn([C@@H]2O[C@H](CO)[C@@H](O)[C@H]2O)c(=O)n1 [5-aza-cytidine, reference compound] | % | 100
O=C(O)C(S)C(S)C(=O)O (centres unmarked) | % | 24
Oc1cc(Cl)ccc1Oc1ccc(Cl)cc1Cl | % | 25
O=C1c2ccccc2C(=O)c2c1ccc(O)c2O | % | 51
CC(=O)NCCc1ccc(O)c(-c2c(O)c(O)c3c(c2O)C(=O)c2c(cc(O)c(C(=O)O)c2C(=O)O)C3=O)c1 | % | 21
O=C(O)c1cc(O)c2c(c1)[C@@H]([C@@H]1c3cc(C(=O)O)cc(O)c3C(=O)c3c(O[C@H]4O[C@H](CO)[C@@H](O)[C@H](O)[C@H]4O)cccc31)c1cccc(O[C@H]3O[C@H](CO)[C@@H](O)[C@H](O)[C@H]3O)c1C2=O | % | 30

* * *

Molecular target: DNMT1 (amino acids 621–1616) (Homo sapiens, UniProt P26358)
Construct: RFTS-lacking DNMT1, amino acids 621–1616; made in house
Assay: Validation of HTS hits, endonuclease-coupled DNA methylation assay
Format: biochemical
Set-up: concentration or dose not given beside the values
Settings: from initial velocity compared to DMSO control
Experimental Endpoint: Percent Activity

Molecule | Experimental Result
CC1/C=C/C=C/C=C/C=C/C=C/C=C/C=C/C(O[C@@H]2O[C@H](C)[C@H](O)[C@@H](O)[C@@H]2N)CC(O)C(C(=O)O)C(O)CC(=O)CC(O)CC(O)CC(O)CC(=O)CCCC(=O)CC(=O)OC1C(C)CC(C)C(O)CC(=O)c1ccc(N)cc1 (stereo partly drawn) [Cmpd 24] | 9%
Oc1cc(Cl)ccc1Oc1ccc(Cl)cc1Cl [Cmpd 13, triclosan] | 27%
CSc1nc2cc(Cl)c(Oc3cccc(Cl)c3Cl)cc2[nH]1 [Cmpd 29, triclabendazole] | 36%
O=C(O)c1cc(O)c2c(c1)[C@@H]([C@H]1c3cc(C(=O)O)cc(O)c3C(=O)c3c(O[C@H]4O[C@H](CO)[C@@H](O)[C@H](O)[C@H]4O)cccc31)c1cccc(O[C@H]3O[C@H](CO)[C@@H](O)[C@H](O)[C@H]3O)c1C2=O [Cmpd 22] | 0%
CC(=O)NCCc1ccc(O)c(-c2c(O)c(O)c3c(c2O)C(=O)c2c(cc(O)c(C(=O)O)c2C(=O)O)C3=O)c1 [Cmpd 40, Laccaic acid A] | 11%
O=C1c2ccccc2C(=O)c2c1ccc(O)c2O [Cmpd 26, alizarin] | 49%
O=c1c(O)c(-c2ccc(O)c(O)c2)oc2c(O)c(O)cc(O)c12 [Cmpd 33] | 45%
O=C(O)C(S)C(S)C(=O)O (stereo not drawn) [Cmpd 51] | 9%
O=C(O)c1cc(O)c2c(c1)[C@@H]([C@@H]1c3cc(C(=O)O)cc(O)c3C(=O)c3c(O[C@H]4O[C@H](CO)[C@@H](O)[C@H](O)[C@H]4O)cccc31)c1cccc(O[C@H]3O[C@H](CO)[C@@H](O)[C@H](O)[C@H]3O)c1C2=O [Cmpd 36] | 0%

* * *

Test system: GlaI
Assay: GlaI counterscreen
Format: biochemical
Conditions: 11 µM test compound, compared to DMSO
Here the recorded Percent Activity is given for each entry.

Compound | Percent Activity [%]
O=C(O)c1cc(O)c2c(c1)[C@@H]([C@H]1c3cc(C(=O)O)cc(O)c3C(=O)c3c(O[C@H]4O[C@H](CO)[C@@H](O)[C@H](O)[C@H]4O)cccc31)c1cccc(O[C@H]3O[C@H](CO)[C@@H](O)[C@H](O)[C@H]3O)c1C2=O | 86
CC(=O)NCCc1ccc(O)c(-c2c(O)c(O)c3c(c2O)C(=O)c2c(cc(O)c(C(=O)O)c2C(=O)O)C3=O)c1 | 79
O=C(O)C(S)C(S)C(=O)O (centres unmarked) | 89
CSc1nc2cc(Cl)c(Oc3cccc(Cl)c3Cl)cc2[nH]1 | 79
O=C1c2ccccc2C(=O)c2c1ccc(O)c2O | 79
